Assignment: determine reported Activity for the given compounds.
- TARGET UNDER TEST: Serine/threonine-protein kinase SIK3 (Homo sapiens, UniProt Q9Y2K2)
- Sequence (Q9Y2K2 whole entry, looked up): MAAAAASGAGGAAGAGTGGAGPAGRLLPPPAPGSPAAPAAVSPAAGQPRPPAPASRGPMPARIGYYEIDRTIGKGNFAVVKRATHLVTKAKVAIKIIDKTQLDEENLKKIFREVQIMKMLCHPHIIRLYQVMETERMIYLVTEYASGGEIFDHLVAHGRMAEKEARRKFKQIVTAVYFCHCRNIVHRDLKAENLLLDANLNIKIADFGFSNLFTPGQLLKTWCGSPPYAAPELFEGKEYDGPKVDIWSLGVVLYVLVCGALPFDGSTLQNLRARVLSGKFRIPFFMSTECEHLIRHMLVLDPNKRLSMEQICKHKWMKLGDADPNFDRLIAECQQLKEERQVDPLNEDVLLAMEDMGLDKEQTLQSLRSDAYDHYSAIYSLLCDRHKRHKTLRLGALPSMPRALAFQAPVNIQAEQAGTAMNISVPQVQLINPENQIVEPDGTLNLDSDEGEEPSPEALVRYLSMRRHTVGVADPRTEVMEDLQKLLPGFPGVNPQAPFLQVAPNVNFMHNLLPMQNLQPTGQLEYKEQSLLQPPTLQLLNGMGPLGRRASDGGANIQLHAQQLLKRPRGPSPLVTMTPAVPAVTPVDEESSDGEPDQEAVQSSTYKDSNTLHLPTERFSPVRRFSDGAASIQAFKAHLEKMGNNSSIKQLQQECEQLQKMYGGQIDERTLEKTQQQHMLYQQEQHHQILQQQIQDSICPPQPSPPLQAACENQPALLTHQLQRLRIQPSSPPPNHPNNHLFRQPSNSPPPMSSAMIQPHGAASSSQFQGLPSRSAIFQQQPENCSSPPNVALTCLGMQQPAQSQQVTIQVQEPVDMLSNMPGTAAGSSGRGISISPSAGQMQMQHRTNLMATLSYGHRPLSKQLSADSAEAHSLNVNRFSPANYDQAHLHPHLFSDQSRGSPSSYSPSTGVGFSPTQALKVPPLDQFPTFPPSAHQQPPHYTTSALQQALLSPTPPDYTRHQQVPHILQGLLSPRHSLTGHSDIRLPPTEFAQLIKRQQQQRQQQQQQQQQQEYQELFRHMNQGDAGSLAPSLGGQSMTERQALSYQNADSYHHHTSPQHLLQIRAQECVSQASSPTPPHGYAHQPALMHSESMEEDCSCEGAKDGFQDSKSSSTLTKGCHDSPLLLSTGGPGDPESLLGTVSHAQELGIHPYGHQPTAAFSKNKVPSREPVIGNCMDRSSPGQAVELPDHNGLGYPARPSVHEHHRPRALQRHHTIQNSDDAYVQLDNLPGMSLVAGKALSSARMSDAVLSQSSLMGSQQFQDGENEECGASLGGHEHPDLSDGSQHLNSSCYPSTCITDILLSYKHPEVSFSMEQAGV
- ASSAY PROCEDURE: Inhibition of SIK3 (unknown origin) assessed as residual activity at 0.1 uM relative to control
Answer format: number, then unit.

API: value(readout=Activity, system=Serine/threonine-protein kinase SIK3 (Homo sapiens, UniProt Q9Y2K2)) for record CN1CCN(c2ccc(Nc3ncc(C(=O)Nc4c(F)cccc4F)c(NC4CCC4)n3)cc2)CC1
93%

API: value(readout=Activity, system=Serine/threonine-protein kinase SIK3 (Homo sapiens, UniProt Q9Y2K2)) for record Cc1cccc(Cl)c1NC(=O)c1cnc(Nc2ccc(N3CCN(C)CC3)cc2)nc1NC1CCC1
68%

API: value(readout=Activity, system=Serine/threonine-protein kinase SIK3 (Homo sapiens, UniProt Q9Y2K2)) for record COc1cccc(C)c1NC(=O)c1cnc(Nc2ccc(N3CCN(C)CC3)cc2)nc1NC1CCC1
93%

API: value(readout=Activity, system=Serine/threonine-protein kinase SIK3 (Homo sapiens, UniProt Q9Y2K2)) for record CN1CCN(c2ccc(Nc3ncc(C(=O)Nc4ccccc4F)c(NC4CCC4)n3)cc2)CC1
100%

API: value(readout=Activity, system=Serine/threonine-protein kinase SIK3 (Homo sapiens, UniProt Q9Y2K2)) for record Cc1cccc(F)c1NC(=O)c1cnc(Nc2ccc(N3CCN(C)CC3)cc2)nc1NC1CCC1
9%

API: value(readout=Activity, system=Serine/threonine-protein kinase SIK3 (Homo sapiens, UniProt Q9Y2K2)) for record Cc1cccc(Br)c1NC(=O)c1cnc(Nc2ccc(N3CCN(C)CC3)cc2)nc1NC1CCC1
66%

Every entry's value here was drawn from ChEMBL document CHEMBL5370540.
